test description: GST activity toward CDNB
Type: biochemical
study conditions: recombinant wheat GST expressed in E. coli, affinity purified
observable: GST activity toward CDNB (nkat.mg^−1)
Numbers only here, please. The scale is nkat.mg^−1.

Can you share its GST activity toward CDNB? I mean this molecule: WIC 1: recombinant type I wheat GST, SEQ ID No. 3, amino acid SEQ ID No. 4 (protein, Triticum aestivum L.) MAAPAVKVYGWAMSPFVARALLCLEEAGVEYELVPMSREAGDHRQPDFLARNPFGQVPVLEDGDLTIFESRAVARHVLRKHKPELLGSGSPESAAMVDVWLEVEAHQHQTPAGTIVMQCILTPFLGCQRDQAAIDENAAKLTNLFDVYEARLSASRYLAGEAVSLADLSHFPFMRYFMDTEYASLVEERPHVKAWWEEFKASPAAKRVTEFMPPNFGFGKKAEK
406.5
